System: HOP-62 NSCLC
Test: NCI-60 one-dose screen, 48 h (100 = growth as untreated, 0 = no growth, -100 = all killed)
Conditions: 10 µM unless noted
The panel holds about 83,000 compounds, 20% with a hit somewhere; the sample as a whole holds those more often.
Each entry below carries its reported growth.

| smiles_record | growth [%] |
| --- | --- |
| Fc1cc2c(cc1Cl)N(c1ncnc3ccc(-c4ccc5n[nH]nc5c4)cc13)CC2 | 72.3 |
| Fc1cccc(Oc2ccc(Nc3ncnc4ccc(OCCCN5CCOCC5)cc34)cc2Cl)c1 | 82.5 |
| CCN(CC)Cc1cc(C=C2C(=O)NC(=S)NC2=O)cc(OC)c1O | 106 |
| Cn1c(=O)cc2c3c(c(NCCCO)ccc31)C(=O)c1ccccc1-2 | 43.8 |
| CCn1cc(C(=O)NNC(=S)Nc2ccc(C)cc2)c(=O)c2ccc(C)nc21 | 108 |

###

Each entry below carries its reported growth.
System: SK-MEL-5 melanoma
Test: NCI-60 one-dose screen, 48 h (100 = growth as untreated, 0 = no growth, -100 = all killed)
Conditions: 10 µM unless noted
About 83,000 compounds went through this panel and 20% of them were active in at least one assay; those are over-represented in the sample as a whole.

| molecule | growth (%) |
| --- | --- |
| COc1ccc(OC)c(Nc2nnc(-c3ccc(O)c(OC)c3)o2)c1 | 71.6 |
| Cc1cc(N2CCN(CC(=O)Nc3ccc4c(ccn4C)c3)CC2)nc(N2CCCCCC2)n1 | 92.1 |
| COC1/C=C/OC2(C)Oc3c(C)c(O)c4c(O)c(c(/C=N/Nc5ccc([N+](=O)[O-])cc5[N+](=O)[O-])c(O)c4c3C2=O)NC(=O)C(C)=C/C=C/C(C)C(O)C(C)C(O)C(C)C(OC(C)=O)C1C (stereo not given) | 29.7 |
| CCOC(=O)Cc1cnc(N/N=C(\C)c2cc3ccccc3o2)s1 | 99.3 |
| CCOC(=O)NC(C)C | 103 |
| COc1ccc(/C=N/C2=C(C#N)C(c3ccccc3)c3ccc4ccccc4c3O2)cc1 (stereo not given) | 16.3 |
| O=C1c2ccc3c4c5ccc(c24)C(=O)N1CCCOCCCCOCCCNCc1ccc(cc1)CNCCCOCCCCOCCCN(C3=O)C5=O | -99.9 |
| CCOC(=O)c1c(NC(=O)c2cccc(C(F)(F)F)c2)sc2c(CN(C)C)c(O)ccc12 | 93.6 |
| Cc1ccc2c(c1)=C/C(=C\c1cc(-c3ccccc3)oc1O)C(=O)N=2 | 105 |
| C#CCOc1cccc(Nc2ncnc3cc(NC(=O)C=C)ccc23)c1 | 8.74 |
| CCCC/C=C/[C@@H]1C[C@H]1CCO | 99.3 |
| Cc1cc(C(=O)O)c(C)n1-c1cccc(C(=O)O)c1 | 95.8 |
| CCOC(=O)n1cc(-c2nonc2-c2cn(C(=O)OCC)c3ccc(Br)cc23)c2ccccc21 | 82.3 |
| c1ccc(-c2oc(-c3ccccc3)c(CN3CCCCC3)c2CN2CCCCC2)cc1 | -87 |
| COc1ccc(C(C)=O)cc1S(=O)(=O)Nc1c(N)nc(SC)[nH]c1=O | 100 |
| CC1CCN(S(=O)(=O)c2ccc(S(=O)(=O)N3CCCC(c4nc5c(nnn5Cc5cccc(Cl)c5)c(=O)[nH]4)C3)cc2)CC1 (stereo not given) | 24.1 |
| COc1cc(NS(=O)(=O)c2ccc(-c3cnc(C4CC4)o3)cc2)ccc1F | 15.5 |
| Cc1ccc(C)n1-c1ccccc1-n1c(C)ccc1C | 104 |
| CCCn1cc2c(=O)nc3sc(Cc4ccccc4)c(C)n3c2n1 | 107 |
| Cc1c(O)cc(-c2cnc(Nc3ccccc3)s2)c(O)c1C | 93.4 |

###

Test system: NCI/ADR-RES ovarian
Test: NCI-60 one-dose screen, 48 h (100 = growth as untreated, 0 = no growth, -100 = all killed)
Conditions: 10 µM unless noted
This is part of a sample that, as a whole, favours compounds with a hit. Of some 83,000 tested, about 20% had one in any assay.
Each entry below carries its reported growth.
measured_parameter: growth (%)

| smiles_record | measured_parameter | unit_spec | observed_value |
| --- | --- | --- | --- |
| CCOC(=O)C#Cc1c(C(=O)OCC)nnn1Cc1ccc([N+](=O)[O-])cc1 | growth | % | 96.3 |
| CCOC(=O)n1ccn(C)c1=S | growth | % | 107 |
| O=C(NCCNc1nccc(Nc2ccc(S(=O)(=O)Nc3ccccn3)cc2)n1)c1cccc([N+](=O)[O-])c1 | growth | % | 104 |
| Nc1c(C(=O)Nc2ccccc2F)sc2nc3c(cc12)CCCC3 | growth | % | 24.7 |
| C=C1C(=O)O[C@H]2[C@H]1CC/C(COC(=O)NCc1ccc(Cn3c(=O)sn(CCCCC)c3=O)cc1)=C\CC[C@@]1(C)O[C@@H]21 | growth | % | 99.8 |

###

Test system: MCF7 breast
Experiment: NCI-60 one-dose screen, 48 h (100 = growth as untreated, 0 = no growth, -100 = all killed)
Settings: 10 µM unless noted
About 83,000 compounds went through this panel and 20% of them were active in at least one assay; those are over-represented in the sample as a whole. The source made the active and inactive calls. The calls were made as follows: active = growth percent below 10; inactive = the rest.
measured_parameter: growth

| compound | measured_parameter | observed_value |
| --- | --- | --- |
| CSc1oc(C)nc1[P+](c1ccccc1)(c1ccccc1)c1ccccc1 | growth | 23.5% (inactive) |
| O=C(O)c1cn(C2CC2)c2cc(N3CCN(Cc4ccc5ccccc5c4O)CC3)c(F)cc2c1=O | growth | 17% (inactive) |
| CCN(CC)S(=O)(=O)c1ccc(S(=O)(=O)N2CCC[C@@H](C(=O)N3CCN(c4nc(C(C)C)no4)CC3)C2)cc1 | growth | 50.7% (inactive) |
| COc1c(B(O)O)cccc1-c1nc2c(F)cc3[nH]ncc3c2c2c1CCCC2 | growth | -3.83% (active) |
| CCCCCCCCCCCCCCCCCCOc1ccccc1CC(=O)OCC[N+](C)(C)C | growth | 34% (inactive) |
| C=C1C(=O)O[C@H]2[C@H]1CC/C(COC(=O)c1cc3ccccc3s1)=C\CC[C@@]1(C)O[C@@H]21 | growth | -41.9% (active) |
| O=S(=O)(NCCNc1nccc(-c2c(-c3ccc(F)c(O)c3)nc3occn23)n1)c1ccc(Cl)cc1 | growth | 71.6% (inactive) |
| C1CN(SSN2CCOCC2)CCO1 | growth | 22.1% [100 µM] (inactive) |
| COc1ccc(-c2cc(-c3cc(OC)c(OC)c(OC)c3)c(C#N)c(=O)n2CCCCC(=O)NO)cc1 | growth | 66.5% (inactive) |
| CS(=O)(=O)c1ccc(-c2cnn3ccc(-c4cccc(S(=O)(=O)C5CC5)c4)nc23)cc1 | growth | 18% (inactive) |
| CCC(C)N(CCNc1cc(OC)cc2cccnc12)CC(C)C (centres undefined) | growth | 12.6% (inactive) |
| COc1cc2oc(-c3cccc(NC(=O)c4ccccc4)c3)cc(=O)c2c(OC)c1OC | growth | 77.3% (inactive) |
| CCOC(=O)c1c(C(=O)c2cn(C)c3ccc(Br)cc23)c(-c2cn(C)c3ccc(Br)cc23)n(NC(=O)OC(C)(C)C)c1C | growth | 78.3% [100 µM] (inactive) |
| C#CCNC(=O)[C@H](CC)[C@H]1CC[C@H](C)[C@H]([C@@H](C)[C@H](O)[C@H](C)C(=O)[C@H](CC)C2O[C@]3(C=CC(=O)[C@]4(CC[C@@](C)([C@H]5CC[C@](O)(CC)[C@H](C)O5)O4)O3)[C@H](C)C[C@@H]2C)O1 (some centres undefined) | growth | 24% (inactive) |
| Nc1cc(C(=O)NC[C@H]2CN(c3ccc(N4CCC(C(=O)O)CC4)cc3)C(=O)O2)ccc1Cl | growth | 95.3% (inactive) |
| Cc1[nH]c(=O)[nH]c(=O)c1Br | growth | 95.6% (inactive) |
| COc1ccc(C2=C(Br)C(=O)c3nc(C)ccc3C2=O)cc1 | growth | 74.7% (inactive) |
| O=c1[nH]c(Cc2nc3ccccc3s2)nc2cc(Br)ccc12 | growth | 78.5% (inactive) |
| Clc1cccc(Nc2ncnc3ccc(-c4cnc5[nH]ccc5c4)cc23)c1 | growth | 48.3% (inactive) |

###

Each entry below carries its reported growth.
Test system: COLO 205 colon
Experiment: NCI-60 one-dose screen, 48 h (100 = growth as untreated, 0 = no growth, -100 = all killed)
Details: 10 µM unless noted
The panel holds about 83,000 compounds, 20% with a hit somewhere; the sample as a whole holds those more often.

| compound | unit_spec | growth |
| --- | --- | --- |
| CCSc1oc(-c2ccccc2)nc1[P+](c1ccccc1)(c1ccccc1)c1ccccc1 | % | -45.5 |
| O=C(O)CCN1C(=O)/C(=C/C(Cl)=C/c2ccccc2)SC1=S | % | 13 |
| CCSC(SCC)c1ccc(Cl)cc1 | % | 117 |
| Cn1cc(-c2csc(-c3c[nH]c4ccc(Br)cc34)n2)c2ccnc(Cl)c21 | % | 42.5 |
| Cc1ccc(/C=C2\COc3ccc(O)cc3C2=O)cc1 | % | 94.3 |
| Cc1cc(C(=O)Nc2ncc(Cc3cccc(C(F)(F)F)c3)s2)c2ccccc2n1 | % | 19.2 |
| COc1c(C(=O)Nc2ccc(C)c(Br)c2)ccc2ccccc12 | % | 101 |
| Cn1ccnc1C(=O)/C=C/c1ccc(C(=O)Nc2ccc(Cl)cc2)cc1 | % | 1.1 |
| Cn1ccnc1C(=O)/C=C/c1ccc(C(=O)Nc2ccccc2O)cc1 | % | 56.5 |
| C=CCSc1nnc(NC(=O)CCl)s1 | % | 122 |
| O=C(OC(CO)C(=O)NC12CC3CC(CC(C3)C1)C2)c1ccc(Cl)cc1 (configuration not stated) | % | 110 |
| CCOC(=O)c1cc(C)n(-c2ccc(C(=O)O)cc2)c1C | % | 89.8 |
| O=C1C(=O)N(Cc2ccc(-c3ccccc3)cc2)c2ccc(OC(F)(F)F)cc21 | % | 82.7 |
| O=C(CSc1nc2ccc([N+](=O)[O-])cc2[nH]1)Nc1ccc([N+](=O)[O-])cc1 | % | 21.4 |
| NNc1nc(-c2cccnc2)nc2c1sc(=S)n2-c1ccccc1 | % | 98.4 |
| Cc1ccc(C(=O)c2ccc(CC(=O)N/N=C/c3ccccc3O)n2C)cc1 | % | 101 |
| O=C(c1nn(-c2ccccc2)c2c1CC(NCc1ccc(F)cc1)CC2)N1CCCCC1 (configuration not stated) | % | 108 |
| O=C1Nc2ccccc2/C1=C/c1cccn1CCCCn1c2ccccc2c(=O)c2ccccc21 | % | 69.8 |
| COCCOc1cc2ncnc(N3CCN(c4ncc(S(=O)(=O)N5CCCCC5)cn4)CC3)c2cc1OCCOC | % | 121 |
| Cc1ccc2c(n1)C(=O)C(Br)=C(CC(C)C)C2=O | % | 78.5 |
| O=C(Nc1cccc(Cl)c1)Nc1cccc(Cn2c(=O)[nH]c3ccc(Oc4ncccn4)cc3c2=O)c1 | % | 48.3 |
| Cc1cccc(CNc2c3ccccc3nc3ccccc23)c1 | % | -16.2 |
